Cited source: ChEMBL document CHEMBL3232987

Tested on: Staphylococcus aureus
Assay: Antibacterial activity against Staphylococcus aureus ATCC 25923 by NCCLS two-fold dilution method
Format: functional
Settings: Staphylococcus aureus, ATCC 25923
Give MIC for every item shown.
Give bare numbers, in µg/mL.

Previously resolved entries follow.
CC(C)(C)n1nnnc1C(c1cccc2ccccc12)N1CCN(c2cc3c(cc2F)c(=O)c(C(=O)O)cn3Cc2ccc(C(F)(F)F)cc2)CC1 (stereo not drawn) | 50
CCn1cc(C(=O)O)c(=O)c2cc(F)c(N3CCN(C(c4ccc(C(C)C)cc4)c4nnnn4C(C)(C)C)CC3)cc21 (stereo not drawn) | 50

Write down MIC measured for item CCn1cc(C(=O)O)c(=O)c2cc(F)c(N3CCN(C(c4ccc(C(C)C)cc4)c4nnnn4C4CCCCC4)CC3)cc21 (stereo not drawn)
12.5

----------
System: Staphylococcus aureus
Assay: Antibacterial activity against gentamicin-resistant Staphylococcus aureus ATCC 33592 after 24 hrs by spectrophotometric analysis
Type: functional, organism-based
Conditions: Staphylococcus aureus, ATCC 33592, 24 h; read-out: IC50
metric name: IC50 (µg/mL)
One number for each entry, in µg/mL.

Previously resolved entries follow.
CC(C)(C)n1nnnc1C(c1ccccc1)N1CCN(c2cc3c(cc2F)c(=O)c(C(=O)O)cn3Cc2ccc(C(F)(F)F)cc2)CC1 (centres undefined) | 50
CCn1cc(C(=O)O)c(=O)c2cc(F)c(N3CCN(C(c4ccc(OC)c(OC)c4OC)c4nnnn4C(C)(C)C)CC3)cc21 (centres undefined) | 0.75
O=C(O)c1cn(C2CC2)c2cc(N3CCNCC3)c(F)cc2c1=O [CIPROFLOXACIN] | 0.2

Then there is this compound:
Write down IC50 measured for item O=C(O)c1cn(Cc2ccc(C(F)(F)F)cc2)c2cc(N3CCN(C(c4ccccc4)c4nnnn4C4CCCCC4)CC3)c(F)cc2c1=O (centres undefined)
21

----------
Give MIC for every item shown.
System: Klebsiella pneumoniae
Experiment: Antibacterial activity against Klebsiella pneumoniae by NCCLS two-fold dilution method
Format: functional

Previously resolved entries follow.
CCn1cc(C(=O)O)c(=O)c2cc(F)c(N3CCN(C(c4ccncc4)c4nnnn4C4CCCCC4)CC3)cc21 (configuration not stated) | 6.25 µg/mL
O=C(O)c1cn(Cc2ccc(C(F)(F)F)cc2)c2cc(N3CCN(C(c4ccco4)c4nnnn4C4CCCCC4)CC3)c(F)cc2c1=O (configuration not stated) | 6.25 µg/mL
CCn1cc(C(=O)O)c(=O)c2cc(F)c(N3CCN(C(c4ccc(OC)c(OC)c4OC)c4nnnn4C(C)(C)C)CC3)cc21 (configuration not stated) | > 50 µg/mL

Hey, can you go through the list below and give me MIC for every item?
1. CCn1cc(C(=O)O)c(=O)c2cc(F)c(N3CCN(C(c4ccncc4)c4nnnn4C(C)(C)C)CC3)cc21 (configuration not stated)
2. CCn1cc(C(=O)O)c(=O)c2cc(F)c(N3CCN(C(c4ccco4)c4nnnn4C4CCCCC4)CC3)cc21 (configuration not stated)
3. O=C(O)c1cn(C2CC2)c2cc(N3CCNCC3)c(F)cc2c1=O
4. CCn1cc(C(=O)O)c(=O)c2cc(F)c(N3CCN(C(c4ccco4)c4nnnn4C(C)(C)C)CC3)cc21 (configuration not stated)

1: 25 µg/mL; 2: 6.25 µg/mL; 3: 0.012 µg/mL; 4: 12.5 µg/mL
